// provenance: PubChem BioAssay AID2060603

# Tested on: 422866-222-R5-J1-PDC spheroid viability
# assay_summary: Anticancer human tumor 422866-222-R5-J1-PDC patient-derived pancreatic adenocarcinoma cell line growth inhibition [CLK]; active = viability on the fitted dose curve at most 10% of control; inactive = the rest
# run_conditions: second compound 3.16 µM; first compound 10 µM; spheroids with HUVEC and MSC
# Source text: A high-throughput screen of multi-cell type tumor spheroids was designed to identify active combinations of […] and targeted small molecules. Complex spheroids include a stromal component modeled by human endothelial cells (HUVEC) and fibroblasts modeled by human mesenchymal stem cells (MSCs). […] Compounds. […] If the clinical Cmax for an agent had not been determined, the highest concentration tested was 10 microM. […]
Valid outcomes are listed here; reply with one: 1 = active, -1 = inactive

# example entries with known answers
COc1ccc([C@@H](O)c2cc(-c3ncnc4cc(N5CCOCC5)ccc34)c(F)cc2Cl)nn1 + CN1CCN(c2cc(C(=O)Nc3cc4cc(-c5cnn(C)c5)ccc4cn3)ccn2)CC1 = -1
C#Cc1c(F)ccc2cc(O)cc(-c3ncc4c(N5CC6CCC(C5)N6)nc(OCC56CCCN5CC(F)C6)nc4c3F)c12 (stereo not given) + CN1CCN(c2cc(C(=O)Nc3cc4cc(-c5cnn(C)c5)ccc4cn3)ccn2)CC1 = 1
CC(Nc1ccc2c(c1)OCCn1cc(N3C(=O)OCC3C(F)F)nc1-2)C(N)=O (stereo not given) + CN1CCN(c2cc(C(=O)Nc3cc4cc(-c5cnn(C)c5)ccc4cn3)ccn2)CC1 = -1
C=C(F)C(=O)N1CCN(c2nc(OCC3CCCN3C)nc3c2CCN(c2cccc4cccc(Cl)c24)C3)CC1CC#N (stereo not given) + CN1CCN(c2cc(C(=O)Nc3cc4cc(-c5cnn(C)c5)ccc4cn3)ccn2)CC1 = 1

We now examine a further compound.
Hi team, can someone confirm the assay call for O=c1[nH]cc(F)c(=O)[nH]1 + CNC(=O)c1ccc(Nc2nc(OC3CCCC3)c3c(-c4ccc5nc(C)oc5c4)c[nH]c3n2)c(OC)c1 ?
-1

###

# Test system: 422866-222-R5-J1-PDC spheroid viability
# assay_summary: Anticancer human tumor 422866-222-R5-J1-PDC cell line growth inhibition [CLK];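 note: spheroids exposed to agents for seven days before readout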
# run_conditions: second compound 0.0316 µM; first compound 0.01 µM; stronger effect = lower value; spheroids with HUVEC and MSC
measure: viability, T/C (%)
# output: bare number, implied unit %

Some solved cases for reference:
Cn1ncnc1[C@H]1c2n[nH]c(=O)c3cc(F)cc(c23)N[C@@H]1c1ccc(F)cc1 + CNC(=O)c1ccc(Nc2nc(OC3CCCC3)c3c(-c4ccc5nc(C)oc5c4)c[nH]c3n2)c(OC)c1 = 91.2
CCN1CCN(Cc2ccc(Nc3ncc(F)c(-c4cc(F)c5nc(C)n(C(C)C)c5c4)n3)nc2)CC1 + CNC(=O)c1ccc(Nc2nc(OC3CCCC3)c3c(-c4ccc5nc(C)oc5c4)c[nH]c3n2)c(OC)c1 = 111
CCc1c2c(nc3ccc(O)cc13)-c1cc3c(c(=O)n1C2)COC(=O)[C@]3(O)CC + CN1CCN(c2cc(C(=O)Nc3cc4cc(-c5cnn(C)c5)ccc4cn3)ccn2)CC1 = 41.2
CCN1CCN(Cc2ccc(Nc3ncc(F)c(-c4cc(F)c5nc(C)n(C(C)C)c5c4)n3)nc2)CC1 + CN1CCN(c2cc(C(=O)Nc3cc4cc(-c5cnn(C)c5)ccc4cn3)ccn2)CC1 = 101
CCc1c2c(nc3ccc(O)cc13)-c1cc3c(c(=O)n1C2)COC(=O)[C@]3(O)CC + CNC(=O)c1ccc(Nc2nc(OC3CCCC3)c3c(-c4ccc5nc(C)oc5c4)c[nH]c3n2)c(OC)c1 = 46.4

Complete the entry with viability, T/C for COc1c(OCCCN2CCOCC2)ccc2c3n(c(=NC(=O)c4cnc(N)nc4)nc12)CCN3 + CN1CCN(c2cc(C(=O)Nc3cc4cc(-c5cnn(C)c5)ccc4cn3)ccn2)CC1
65.7

Tell me viability, T/C reported for Cn1ncnc1[C@H]1c2n[nH]c(=O)c3cc(F)cc(c23)N[C@@H]1c1ccc(F)cc1 + CN1CCN(c2cc(C(=O)Nc3cc4cc(-c5cnn(C)c5)ccc4cn3)ccn2)CC1
102

Return reported viability, T/C. Input compound: COc1c(OCCCN2CCOCC2)ccc2c3n(c(=NC(=O)c4cnc(N)nc4)nc12)CCN3 + CNC(=O)c1ccc(Nc2nc(OC3CCCC3)c3c(-c4ccc5nc(C)oc5c4)c[nH]c3n2)c(OC)c1
51.5

###

# Test system: 422866-222-R5-J1-PDC spheroid viability
# assay_summary: Anticancer human tumor 422866-222-R5-J1-PDC cell line growth inhibition [CLK];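 note: spheroids exposed to agents for seven days before readout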
# run_conditions: second compound 0.1 µM; first compound 0.03 µM; stronger effect = lower value; spheroids with HUVEC and MSC
Label 1 when viability, T/C is strictly below 90%; at or above that, label -1.

C=CC(=O)Nc1cc(Nc2nccc(-c3cn(C)c4ccccc34)n2)c(OC)cc1N(C)CCN(C)C + CNC(=O)c1ccc(Nc2nc(OC3CCCC3)c3c(-c4ccc5nc(C)oc5c4)c[nH]c3n2)c(OC)c1 = 1
NC(=O)C(=Cn1cnc(-c2cc(C(F)(F)F)cc(C(F)(F)F)c2)n1)c1cncnc1 + CN1CCN(c2cc(C(=O)Nc3cc4cc(-c5cnn(C)c5)ccc4cn3)ccn2)CC1 = -1
NC(=O)C(=Cn1cnc(-c2cc(C(F)(F)F)cc(C(F)(F)F)c2)n1)c1cncnc1 + CNC(=O)c1ccc(Nc2nc(OC3CCCC3)c3c(-c4ccc5nc(C)oc5c4)c[nH]c3n2)c(OC)c1 = -1
C=CC(=O)Nc1cc(Nc2nccc(-c3cn(C)c4ccccc34)n2)c(OC)cc1N(C)CCN(C)C + CN1CCN(c2cc(C(=O)Nc3cc4cc(-c5cnn(C)c5)ccc4cn3)ccn2)CC1 = -1

Just wondering, is viability, T/C of CC(C)CC(NC(=O)C(Cc1ccccc1)NC(=O)c1cnccn1)B(O)O (stereo unspecified) + CN1CCN(c2cc(C(=O)Nc3cc4cc(-c5cnn(C)c5)ccc4cn3)ccn2)CC1 below 90%?
1

State whether 90% exceeds viability, T/C recorded for CC(C)CC(NC(=O)C(Cc1ccccc1)NC(=O)c1cnccn1)B(O)O (stereo unspecified) + CNC(=O)c1ccc(Nc2nc(OC3CCCC3)c3c(-c4ccc5nc(C)oc5c4)c[nH]c3n2)c(OC)c1 .
1

###

# Tested on: 422866-222-R5-J1-PDC spheroid viability
# assay_summary: Anticancer human tumor 422866-222-R5-J1-PDC cell line growth inhibition [CLK];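 note: spheroids exposed to agents for seven days before readout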
# run_conditions: curve of first compound; second compound 3.16 µM; spheroids with HUVEC and MSC
measure: IC50 (nM)
Give a bare numeral; the unit nM is implied.

NC(=O)C(=Cn1cnc(-c2cc(C(F)(F)F)cc(C(F)(F)F)c2)n1)c1cncnc1 + CNC(=O)c1ccc(Nc2nc(OC3CCCC3)c3c(-c4ccc5nc(C)oc5c4)c[nH]c3n2)c(OC)c1 = 37

Identify measured IC50 associated with COc1c(OCCCN2CCOCC2)ccc2c3n(c(=NC(=O)c4cnc(N)nc4)nc12)CCN3 + CNC(=O)c1ccc(Nc2nc(OC3CCCC3)c3c(-c4ccc5nc(C)oc5c4)c[nH]c3n2)c(OC)c1
8.5

###

# Tested on: 422866-222-R5-J1-PDC spheroid viability
# assay_summary: Anticancer human tumor 422866-222-R5-J1-PDC cell line growth inhibition [CLK];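 note: spheroids exposed to agents for seven days before readout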
# run_conditions: second compound 3.16 µM; first compound 0.0316 µM; stronger effect = lower value; spheroids with HUVEC and MSC
measure: viability, T/C (%)
Supply the numeric figure in %, leaving out any unit text.

COc1cccc2c1C(=O)c1c(O)c3c(c(O)c1C2=O)CC(O)(C(=O)CO)CC3OC1CC(N)C(O)C(C)O1 (stereo not given) + CN1CCN(c2cc(C(=O)Nc3cc4cc(-c5cnn(C)c5)ccc4cn3)ccn2)CC1 = 8.41
COc1ccc([C@@H](O)c2cc(-c3ncnc4cc(N5CCOCC5)ccc34)c(F)cc2Cl)nn1 + CNC(=O)c1ccc(Nc2nc(OC3CCCC3)c3c(-c4ccc5nc(C)oc5c4)c[nH]c3n2)c(OC)c1 = 54.5
CCCS(=O)(=O)Nc1ccc(F)c(C(=O)c2c[nH]c3ncc(-c4ccc(Cl)cc4)cc23)c1F + CNC(=O)c1ccc(Nc2nc(OC3CCCC3)c3c(-c4ccc5nc(C)oc5c4)c[nH]c3n2)c(OC)c1 = 58.4
C#Cc1c(F)ccc2cc(O)cc(-c3ncc4c(N5CC6CCC(C5)N6)nc(OCC56CCCN5CC(F)C6)nc4c3F)c12 (stereo not given) + CNC(=O)c1ccc(Nc2nc(OC3CCCC3)c3c(-c4ccc5nc(C)oc5c4)c[nH]c3n2)c(OC)c1 = 62.7

For the compound C=C(F)C(=O)N1CCN(c2nc(OCC3CCCN3C)nc3c2CCN(c2cccc4cccc(Cl)c24)C3)CC1CC#N (stereo not given) + CNC(=O)c1ccc(Nc2nc(OC3CCCC3)c3c(-c4ccc5nc(C)oc5c4)c[nH]c3n2)c(OC)c1 , give its reported viability, T/C.
28.4
